Where do the numbers come from? From paper doi:10.1101/2025.01.30.635627v1.

assayed_system: AAK1 (Homo sapiens)
Sequence (Q2M2I8 whole entry): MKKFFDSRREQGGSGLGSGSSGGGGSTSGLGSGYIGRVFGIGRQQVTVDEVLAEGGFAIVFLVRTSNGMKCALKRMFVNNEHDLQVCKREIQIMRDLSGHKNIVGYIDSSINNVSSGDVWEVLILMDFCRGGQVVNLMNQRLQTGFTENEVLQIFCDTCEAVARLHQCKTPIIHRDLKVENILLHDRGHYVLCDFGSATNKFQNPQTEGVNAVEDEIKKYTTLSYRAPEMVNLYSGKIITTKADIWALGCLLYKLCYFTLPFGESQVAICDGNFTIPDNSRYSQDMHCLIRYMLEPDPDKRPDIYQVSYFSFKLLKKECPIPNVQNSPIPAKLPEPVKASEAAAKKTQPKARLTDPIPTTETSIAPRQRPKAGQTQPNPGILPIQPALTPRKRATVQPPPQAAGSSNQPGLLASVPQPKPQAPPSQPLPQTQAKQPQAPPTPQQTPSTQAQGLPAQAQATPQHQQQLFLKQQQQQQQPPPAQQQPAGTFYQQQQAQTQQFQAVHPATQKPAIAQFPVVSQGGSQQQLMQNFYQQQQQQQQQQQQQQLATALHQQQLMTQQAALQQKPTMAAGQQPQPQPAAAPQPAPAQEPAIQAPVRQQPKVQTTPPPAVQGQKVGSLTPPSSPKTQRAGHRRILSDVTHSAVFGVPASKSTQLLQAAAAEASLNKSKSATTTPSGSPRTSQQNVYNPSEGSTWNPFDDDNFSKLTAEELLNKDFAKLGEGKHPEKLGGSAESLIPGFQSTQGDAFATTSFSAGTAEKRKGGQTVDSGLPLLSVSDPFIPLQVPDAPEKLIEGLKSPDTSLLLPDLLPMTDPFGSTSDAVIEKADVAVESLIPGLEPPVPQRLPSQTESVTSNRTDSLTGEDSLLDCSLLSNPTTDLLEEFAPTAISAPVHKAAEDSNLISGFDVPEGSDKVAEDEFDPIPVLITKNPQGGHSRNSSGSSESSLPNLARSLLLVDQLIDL
quantity_kind: pKd
pKd here is simply -log10 of the concentration when that concentration is written in mol/L.

molecule Cn1nccc1Nc1nccc(-c2cc3c(s2)C(C)(C)N(CCN2CCOCC2)C3=O)n1 , pKd observed: 7.96
